Data origin, for the record: the NIST ThermoML archive (doi:10.1021/je900056u)

settings: 313.15 K; 101 kPa; Liquid; Linear variable-path acoustic interferometer
± gives the expanded uncertainty stated by the source.
Assay metric: speed of sound
State the value with its unit after it.

CCC(C)=O 1136 ± 7 m/s
O=S1(=O)CCCC1 1558 ± 10 m/s
CCCC(C)=O 1151 ± 7 m/s
CC(=O)CC(C)C 1138 ± 7 m/s

We next turn to a different compound, shown below.
So, `CCC(=O)CC` ? Its speed of sound was 1160 ± 7 m/s

###

As shown below, each of these molecules has a reported mass density value.
settings: 308.15 K; 101 kPa; Liquid; Pycnometric method
Expressed in kg/m3, but write only the number.

So, `CC(=O)CC(C)C` ? Its mass density was 787.7

So, `CCC(C)=O` ? Its mass density was 790.4

So, `O=S1(=O)CCCC1` ? Its mass density was 1257

So, `CCC(=O)CC` ? Its mass density was 799.6

So, `CCCC(C)=O` ? Its mass density was 792.7
